Assay: IUF_NPC2a_radial_glia_migration_72hr: Leibniz Research Institute for Environmental Medicine (IUF) 72-hour Neural Progenitor Cell Migration Assay for Radial Glia Migration (NPC2a) (AID 2284299)
The source made the active and inactive calls. The calls were made as follows: active = hit-call score of the fitted dose curve at least 0.9, where 1 is the maximum; inactive = score below 0.9.
Classes to choose from: class 1 = active, class 0 = inactive

Worked set:
compound: CC(C)N(C(=O)COc1nnc(C(F)(F)F)s1)c1ccc(F)cc1
category_label: class 0
//
compound: CC1(c2ccc(Oc3ccccc3)cc2)OC(=O)N(Nc2ccccc2)C1=O (stereo unspecified)
category_label: class 0
//
compound: COP(=O)(OC)OC=C(Cl)Cl
category_label: class 1

Task: Write down the call the test reported for this compound. Item: CC1(C)C(C=C(Cl)Cl)C1C(=O)OC(C#N)c1ccc(F)c(Oc2ccccc2)c1 (stereo unspecified)
Result: class 0

Task: And for O=S1OCC2C(CO1)C1(Cl)C(Cl)=C(Cl)C2(Cl)C1(Cl)Cl (stereo unspecified) ?
Result: class 0

Task: Same again, this time with CCC(C)(C)C(=O)OC1=C(c2ccc(Cl)cc2Cl)C(=O)OC12CCCCC2
Result: class 0

----------
Experiment: ATG_AP_1_CIS: Attagene CIS-FACTORIAL HepG2 Assay for human Activator Protein 1 (AP-1) (AID 2282931)
Settings: HepG2 Attagene cis-factorial AP-1 reporter mRNA; actives raise or lower the signal
Activity calls are given as the source filed them. The calls were made as follows: active = hit-call score of the fitted dose curve at least 0.9, where 1 is the maximum; inactive = score below 0.9.
measured_parameter: AC50

Answered examples (5):
compound: O=C(NC(=O)c1c(F)cccc1F)Nc1ccc(OC(F)(F)C(F)OC(F)(F)F)c(Cl)c1 (stereo unspecified)
AC50: inactive
//
compound: COc1cc(OC)nc(NC(=O)NS(=O)(=O)c2cc(NC=O)ccc2C(=O)N(C)C)n1
AC50: inactive
//
compound: CCc1ccc(C(=O)NN(C(=O)c2cc(C)cc(C)c2)C(C)(C)C)cc1
AC50: inactive
//
compound: CCC(C)(NC(=O)c1cc(Cl)c(C)c(Cl)c1)C(=O)CCl (stereo unspecified)
AC50: inactive
//
compound: CCC(C)Nc1c([N+](=O)[O-])cc(C(C)(C)C)cc1[N+](=O)[O-] (stereo unspecified)
AC50: 43.3 µM (active)

Task: Could you tell me which AC50 is on file for O=S1OCC2C(CO1)C1(Cl)C(Cl)=C(Cl)C2(Cl)C1(Cl)Cl (stereo unspecified) ?
Result: inactive

Task: Same read-out for COP(=O)(OC)OC=C(Cl)Cl ?
Result: 67.3 µM (active)

Task: Note, next up: CCC(C)(C)C(=O)OC1=C(c2ccc(Cl)cc2Cl)C(=O)OC12CCCCC2
Result: inactive

Task: Please do the same for Cc1cc(C)nc(NC(=O)NS(=O)(=O)c2ccccc2C(=O)OC2COC2)n1 as well.
Result: inactive

Task: Next compound: CNC(=O)CSP(=S)(OC)OC
Result: inactive

Task: Do the same for CCOc1nc(NC)nc(NC(=O)NS(=O)(=O)c2ccccc2C(=O)OC)n1 please
Result: inactive

----------
Read-out: Forkhead box O1 (FOXO1), FOXO1 (gene 2308)
Test: LTEA_HepaRG_FOXO1: Life Technologies and Expression Analysis (LTEA) Assay for Forkhead box O1 (FOXO1) using HepaRG (AID 2283456)
Conditions: mRNA level, 48 h; actives raise or lower the signal
Method: LTEA_HepaRG is a cell based, multiplexed-readout assay that uses HepaRG, a human liver cell line, with measurements taken at 48 hours after chemical dosing on a 96-well plate.LTEA_HepaRG_FOXO1 is one of 102 assay component(s) measured in the LTEA HepaRG cell culture assay. It is a marker of Cell proliferation, survival, death.Data from the assay component LTEA_HepaRG_FOXO1 was analyzed into 1 endpoint. […]
Activity calls are given as the source filed them. How the source made its calls: active means hit-call score of the fitted dose curve at least 0.9, where 1 is the maximum; inactive means score below 0.9.
Permitted responses: active, inactive

compound: CCOCN(C(=O)CCl)c1c(C)cccc1CC
category_label: inactive
//
compound: CCC(C)(C)C(=O)OC1=C(c2ccc(Cl)cc2Cl)C(=O)OC12CCCCC2
category_label: inactive
//
compound: CCCN(CCOc1c(Cl)cc(Cl)cc1Cl)C(=O)n1ccnc1
category_label: active
//
compound: CC1(C)C(C=C(Cl)Cl)C1C(=O)OC(C#N)c1ccc(F)c(Oc2ccccc2)c1 (stereo unspecified)
category_label: inactive
//
compound: Cc1[nH]c(=O)n(C(C)(C)C)c(=O)c1Cl
category_label: inactive

Now turn to the next compound.
Task: How did this test come out for COc1nn(CSP(=S)(OC)OC)c(=O)s1 ?
Result: inactive
